# tested.system: Nuclear receptor subfamily 1 group I member 2 (Homo sapiens)
# Sequence (O75469 whole entry): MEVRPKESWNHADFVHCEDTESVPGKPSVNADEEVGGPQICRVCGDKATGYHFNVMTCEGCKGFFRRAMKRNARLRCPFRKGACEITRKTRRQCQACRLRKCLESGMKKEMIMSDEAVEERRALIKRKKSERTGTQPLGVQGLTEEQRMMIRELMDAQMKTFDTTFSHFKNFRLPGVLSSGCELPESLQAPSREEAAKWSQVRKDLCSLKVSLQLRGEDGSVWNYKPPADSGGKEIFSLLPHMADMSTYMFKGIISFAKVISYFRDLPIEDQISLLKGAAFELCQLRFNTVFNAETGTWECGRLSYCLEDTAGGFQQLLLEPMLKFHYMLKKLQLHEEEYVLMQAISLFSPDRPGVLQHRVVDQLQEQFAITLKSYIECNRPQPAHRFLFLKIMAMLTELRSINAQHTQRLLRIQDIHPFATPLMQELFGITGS
# procedure.summary: Activation of PXR relative to control
# Set-up: concentration or dose not given beside the values
The following molecules are shown together with reported Activity values.

For orientation, consider the following solved cases.
C[C@](O)(c1ccc(C(=O)N(C2CC2)[C@H]2CC[C@](CCC(N)=O)(c3ccccc3)CC2)cc1)C(F)(F)F
< 5%
CC(=O)NC[C@]1(c2ccccc2)CC[C@H](N(C(=O)c2ccc([C@](C)(O)C(F)(F)F)cc2)C2CC2)CC1
< 5%
C[C@](O)(c1ccc(C(=O)N(C2CC2)[C@H]2CC[C@](CO)(c3ccccc3)CC2)cc1)C(F)(F)F
< 5%
C[C@](O)(c1ccc(C(=O)N(C2CC2)[C@H]2CC[C@](COC(N)=O)(c3ccccc3)CC2)cc1)C(F)(F)F
< 5%

Item: C[C@](O)(c1ccc(C(=O)N(C2CC2)[C@H]2CC[C@](CC(N)=O)(c3ccccc3)CC2)cc1)C(F)(F)F | Activity: < 5%

Item: C[C@](O)(c1ccc(C(=O)N(C2CC2)[C@H]2CC[C@](CC#N)(c3ccccc3)CC2)cc1)C(F)(F)F | Activity: 9%
